All figures here come from paper PMC10974294.

assay_notes: Compound loss (PDMS ad- and absorption) in cell-free organ-chips
Assay type: in vitro ADME
condition_info: cell-free organ-chips; 10 µM per drug in cocktail; outlet vs inlet after one hour at 200 µL/h; mean of two experiments
measurement_type: Compound Loss Top Channel (%)
One number for each entry, in %.

Solved cases below.
molecule: CC(C)(C)NC(=O)[C@@H]1C[C@@H]2CCCC[C@@H]2CN1C[C@@H](O)[C@H](Cc1ccccc1)NC(=O)[C@H](CC(N)=O)NC(=O)c1ccc2ccccc2n1
measure_unit: %
Compound Loss Top Channel (%): 48.0
//
molecule: CC(C)c1c(C(=O)Nc2ccccc2)c(-c2ccccc2)c(-c2ccc(F)cc2)n1CC[C@@H](O)C[C@@H](O)CC(=O)O
measure_unit: %
Compound Loss Top Channel (%): 18.9
//
molecule: CCOC(=O)C1=C(C)NC(C)=C(C(=O)OC)C1c1cccc(Cl)c1Cl (centres unmarked)
measure_unit: %
Compound Loss Top Channel (%): 79.0
//
molecule: CCN(CC)CC#CCOC(=O)C(O)(c1ccccc1)C1CCCCC1 (centres unmarked)
measure_unit: %
Compound Loss Top Channel (%): 99.9

Go through the items and report each one's Compound Loss Top Channel (%).
1. CC(C)c1nc(N(C)S(C)(=O)=O)nc(-c2ccc(F)cc2)c1/C=C/[C@@H](O)C[C@@H](O)CC(=O)O
2. O=C1[C@H](CC[C@H](O)c2ccc(F)cc2)[C@@H](c2ccc(O)cc2)N1c1ccc(F)cc1
3. Cc1nnc2n1-c1sc(CCC(=O)N3CCOCC3)cc1C(c1ccccc1Cl)=NC2
4. O=C1CC2(CCCC2)CC(=O)N1CCCCN1CCN(c2ncccn2)CC1

Solution:
12.6
0.0
15.0
33.1
